Test system: SF-295 CNS
Test: NCI tumour cell line growth inhibition, 48 h
Quick list: GI50 per entry.

Some solved entries appear below for comparison.
COc1ccc(C2ONC3=NCCN32)cc1 (stereo not given): 93.4 µM
Fc1c[c-]c(-c2ccccn2)c(F)c1.[CH3-].[Pt+2].c1ccc(P(C[PH+](c2ccccc2)c2ccccc2)c2ccccc2)cc1: 0.708 µM
COc1ccc2[nH]c(-c3ccccc3)cc2c1: 84.7 µM
CCC(=O)c1cc([N+](=O)[O-])c(Br)s1: 15.5 µM
COc1ccc(C(=O)C[C@]2(O)C(=O)Nc3c(Cl)ccc(Cl)c32)cc1: 0.516 µM
Cc1cc(=O)oc2cc(OCCn3c(C)nn(-c4ccc(Cl)cc4)c3=O)ccc12: 4.73 µM
COc1ccc(-c2cc(/C=C/C(=O)c3cc(OC)c(OC)c(OC)c3)[nH]n2)cc1OC: 1.67 µM
O=C(Cc1ccc(/C=C/C(=O)c2ncc[nH]2)cc1)Nc1ccc(C(F)(F)F)cc1: 4.08 µM

Query COc1ccccc1/C=C\C(=O)c1ccccc1 yields GI50 of 3.27 µM

Query CC(C)(CO)N=Cc1ccccc1[O-].CC(C)(CO)N=Cc1ccccc1[O-].[Co+2] yields GI50 of > 100 µM
